From: ChEMBL document CHEMBL1131665

system name: Integrin alpha-IIb/beta-3 (Homo sapiens, UniProt P05106+P08514)
Sequence (P05106 27-788 limits assumed): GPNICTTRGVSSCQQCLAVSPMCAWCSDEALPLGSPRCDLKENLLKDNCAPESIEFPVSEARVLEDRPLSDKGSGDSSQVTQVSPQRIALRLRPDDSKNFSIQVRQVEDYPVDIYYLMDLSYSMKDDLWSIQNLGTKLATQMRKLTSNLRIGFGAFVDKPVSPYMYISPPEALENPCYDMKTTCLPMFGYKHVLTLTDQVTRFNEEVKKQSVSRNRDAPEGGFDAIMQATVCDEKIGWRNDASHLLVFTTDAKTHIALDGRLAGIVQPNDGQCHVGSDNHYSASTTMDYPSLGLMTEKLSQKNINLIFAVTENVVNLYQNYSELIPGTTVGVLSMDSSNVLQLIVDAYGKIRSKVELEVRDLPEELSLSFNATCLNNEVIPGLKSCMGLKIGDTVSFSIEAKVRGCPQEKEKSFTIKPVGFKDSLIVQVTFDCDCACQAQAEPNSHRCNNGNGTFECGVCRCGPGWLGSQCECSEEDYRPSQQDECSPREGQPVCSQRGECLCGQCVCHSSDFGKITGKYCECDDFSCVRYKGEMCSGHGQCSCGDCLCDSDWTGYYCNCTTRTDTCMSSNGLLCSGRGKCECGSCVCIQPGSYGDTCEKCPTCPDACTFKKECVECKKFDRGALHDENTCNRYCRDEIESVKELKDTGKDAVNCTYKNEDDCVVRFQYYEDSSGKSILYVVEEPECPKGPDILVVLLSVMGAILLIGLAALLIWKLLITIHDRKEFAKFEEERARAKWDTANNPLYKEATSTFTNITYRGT
Sequence (P08514 32-887 limits assumed): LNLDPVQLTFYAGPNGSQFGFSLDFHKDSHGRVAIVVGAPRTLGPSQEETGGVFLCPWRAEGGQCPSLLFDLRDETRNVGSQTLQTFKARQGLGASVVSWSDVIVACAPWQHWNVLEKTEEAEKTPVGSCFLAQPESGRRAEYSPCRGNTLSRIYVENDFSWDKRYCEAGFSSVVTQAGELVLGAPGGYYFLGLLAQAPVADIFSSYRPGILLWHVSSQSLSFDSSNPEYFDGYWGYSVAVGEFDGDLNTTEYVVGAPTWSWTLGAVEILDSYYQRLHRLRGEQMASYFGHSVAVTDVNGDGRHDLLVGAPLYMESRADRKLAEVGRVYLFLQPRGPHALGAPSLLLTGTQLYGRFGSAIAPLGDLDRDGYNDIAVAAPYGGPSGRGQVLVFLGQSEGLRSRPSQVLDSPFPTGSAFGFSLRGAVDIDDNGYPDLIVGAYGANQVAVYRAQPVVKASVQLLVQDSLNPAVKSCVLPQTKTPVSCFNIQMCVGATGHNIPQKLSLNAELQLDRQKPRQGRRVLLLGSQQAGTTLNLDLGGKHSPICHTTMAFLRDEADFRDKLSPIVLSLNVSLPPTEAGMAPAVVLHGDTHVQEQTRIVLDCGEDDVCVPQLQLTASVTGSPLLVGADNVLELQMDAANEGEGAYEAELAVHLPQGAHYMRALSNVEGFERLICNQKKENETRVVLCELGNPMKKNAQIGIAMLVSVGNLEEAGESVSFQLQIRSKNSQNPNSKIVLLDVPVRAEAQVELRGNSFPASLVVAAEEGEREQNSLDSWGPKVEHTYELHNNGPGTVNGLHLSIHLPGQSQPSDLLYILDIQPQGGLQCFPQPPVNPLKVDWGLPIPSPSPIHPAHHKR
Sequence (P08514 891-1039 limits assumed): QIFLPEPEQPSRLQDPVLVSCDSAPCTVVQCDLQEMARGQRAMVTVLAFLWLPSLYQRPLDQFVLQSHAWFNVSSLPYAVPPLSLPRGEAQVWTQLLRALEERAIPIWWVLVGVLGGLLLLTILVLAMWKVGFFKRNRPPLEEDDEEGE
method: Antagonistic activity against fibrinogen receptor
outcome measure: IC50 (µM)

INSERT INTO assay_data (compound, meas_value) VALUES
  ('COc1ccc(S(=O)(=O)N[C@@H](CNC(=O)C2=NOC(CCCCN=C(N)N)C2)C(=O)O)cc1 (some centres undefined)', 0.46),
  ('N=C(N)NCCC1=NOC(CCC(=O)NC[C@H](NC(=O)OCc2ccccc2)C(=O)O)C1 (some centres undefined)', 23),
  ('Cc1cn(C)[n+](Cl)c1S(=O)(=O)N[C@@H](CNC(=O)C1=NOC(CCCCN=C(N)N)C1)C(=O)[O-] (some centres undefined)', 0.22),
  ('N=C(N)NCCCCC1CC(C(=O)NC[C@H](NS(=O)(=O)c2ccc(F)cc2)C(=O)O)=NO1 (some centres undefined)', 1.3);

a: N=C(N)NCCCCCC1=NOC(CC(=O)NC[C@H](NC(=O)OCc2ccccc2)C(=O)O)C1 (some centres undefined)
b: N=C(N)NCCCCC1=NOC(CCC(=O)NC[C@H](NC(=O)OCc2ccccc2)C(=O)O)C1 (some centres undefined)
c: N=C(N)NCCCC1CC(C(=O)NC[C@H](NC(=O)OCc2ccccc2)C(=O)O)=NO1 (some centres undefined)
d: N=C(N)NCCC1CC(CCC(=O)NC[C@H](NC(=O)OCc2ccccc2)C(=O)O)=NO1 (some centres undefined)
[in] Exam item: list the entries in increasing order of IC50. Could you list the labels in the order requested?
[out] a, b, d, c
(a: 1.5 µM, b: 3.6 µM, d: 17 µM, c: 53 µM)

###

method: Antagonistic activity against Vitronectin receptor protein ( alpha v beta 3 ) by ELISA assay
Format: functional
outcome measure: pIC50
Units for pIC50: none; it is -log10 of a concentration expressed in mol/L.

Note to self: pIC50 recorded for N=C(N)NCCCCC1=NOC(C(=O)NC[C@H](NC(=O)OCc2ccccc2)C(=O)O)C1 (stereo partly specified) was 7.09

###

system name: Integrin alpha-IIb/beta-3 (Homo sapiens, UniProt P05106+P08514)
method: Antagonistic activity against fibrinogen receptor
outcome measure: IC50 (µM)

I: N=C(N)NCCCCC1CC(C(=O)NC[C@H](NS(=O)(=O)c2cc(Cl)sc2Cl)C(=O)O)=NO1 (stereo not given in full)
II: N=C(N)NCCC1=NOC(CC(=O)NC[C@H](NC(=O)OCc2ccccc2)C(=O)O)C1 (stereo not given in full)
III: N=C(N)NCCCCC1CC(C(=O)NC[C@H](NS(=O)(=O)c2ccccc2)C(=O)O)=NO1 (stereo not given in full)
IV: N=C(N)NCCCCC1CC(C(=O)NC[C@H](NS(=O)(=O)c2ccc([N+](=O)[O-])cc2)C(=O)O)=NO1 (stereo not given in full)
[in] Hello, I need these entries ordered by IC50, highest reading first. Thanks! Give me the labels in the order the question wants.
[out] IV, II, I, III

###

system name: Integrin alpha-V/beta-3 (Homo sapiens, UniProt P05106+P06756)
Sequence (P06756 31-889 limits assumed, one chain of several): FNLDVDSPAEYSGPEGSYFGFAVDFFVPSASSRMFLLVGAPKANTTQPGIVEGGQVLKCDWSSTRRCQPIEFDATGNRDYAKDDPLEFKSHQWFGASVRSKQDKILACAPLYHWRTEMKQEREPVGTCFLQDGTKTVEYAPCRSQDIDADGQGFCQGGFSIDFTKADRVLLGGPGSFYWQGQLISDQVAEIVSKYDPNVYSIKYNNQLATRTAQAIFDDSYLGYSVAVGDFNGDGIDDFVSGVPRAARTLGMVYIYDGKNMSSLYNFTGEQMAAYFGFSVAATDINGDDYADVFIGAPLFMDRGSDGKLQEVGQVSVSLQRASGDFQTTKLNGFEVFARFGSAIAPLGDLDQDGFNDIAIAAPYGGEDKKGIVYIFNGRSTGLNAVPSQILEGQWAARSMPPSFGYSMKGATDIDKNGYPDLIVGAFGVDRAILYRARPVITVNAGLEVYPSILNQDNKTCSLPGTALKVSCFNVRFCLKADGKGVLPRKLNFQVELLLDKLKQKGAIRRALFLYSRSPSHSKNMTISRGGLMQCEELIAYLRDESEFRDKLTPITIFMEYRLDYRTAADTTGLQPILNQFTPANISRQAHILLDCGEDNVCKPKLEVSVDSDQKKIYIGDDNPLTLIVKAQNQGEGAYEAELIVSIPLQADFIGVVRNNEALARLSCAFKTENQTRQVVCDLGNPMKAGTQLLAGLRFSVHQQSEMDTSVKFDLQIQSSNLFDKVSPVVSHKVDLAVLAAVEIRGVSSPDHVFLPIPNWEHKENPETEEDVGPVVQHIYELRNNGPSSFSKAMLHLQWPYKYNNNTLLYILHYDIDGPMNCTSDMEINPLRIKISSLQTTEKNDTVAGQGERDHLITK
Sequence (P06756 891-1048 limits assumed, one chain of several): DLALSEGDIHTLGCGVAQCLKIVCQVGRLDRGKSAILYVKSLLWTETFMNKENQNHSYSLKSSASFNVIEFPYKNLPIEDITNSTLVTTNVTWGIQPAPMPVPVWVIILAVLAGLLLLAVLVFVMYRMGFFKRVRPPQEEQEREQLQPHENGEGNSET
method: Antagonistic activity against vitronectin receptor
pIC50: −log10 of the molar value.
outcome measure: pIC50

INSERT INTO results (compound, outcome_measure, meas_value) VALUES
  ('CC(C)(C)c1ccc(S(=O)(=O)N[C@@H](CNC(=O)C2=NOC(CCCCNC(=N)N)C2)C(=O)O)cc1 (stereo partly specified)', 'pIC50', 7.44),
  ('N=C(N)NCCCC1=NOC(CCC(=O)NC[C@H](NC(=O)OCc2ccccc2)C(=O)O)C1 (stereo partly specified)', 'pIC50', 7.00),
  ('N=C(N)NCC1CC(CCC(=O)NC[C@H](NC(=O)OCc2ccccc2)C(=O)O)=NO1 (stereo partly specified)', 'pIC50', 6.51),
  ('N=C(N)NCCCCC1CC(C(=O)NC[C@H](NS(=O)(=O)c2ccccc2Br)C(=O)O)=NO1 (stereo partly specified)', 'pIC50', 8.40),
  ('Cn1ccc(S(=O)(=O)N[C@@H](CNC(=O)C2=NOC(CCCCN=C(N)N)C2)C(=O)O)n1 (stereo partly specified)', 'pIC50', 7.02),
  ('Cc1cc(C)c(S(=O)(=O)N[C@@H](CNC(=O)C2=NOC(CCCCN=C(N)N)C2)C(=O)O)c(C)c1 (stereo partly specified)', 'pIC50', 9.15);

A: N=C(N)NCCCCC1CC(C(=O)NC[C@H](NS(=O)(=O)c2cccs2)C(=O)O)=NO1 (stereo partly specified)
B: N=C(N)NCCCC1=NOC(CC(=O)NC[C@H](NC(=O)OCc2ccccc2)C(=O)O)C1 (stereo partly specified)
C: N=C(N)NCCCCC1CC(C(=O)NC[C@H](NS(=O)(=O)c2ccc(Cl)cc2)C(=O)O)=NO1 (stereo partly specified)
D: N=C(N)NCCCCC1=NOC(CCC(=O)NC[C@H](NC(=O)OCc2ccccc2)C(=O)O)C1 (stereo partly specified)
E: CN(C)c1cccc2c1ccc[n+]2S(=O)(=O)N[C@@H](CNC(=O)C1=NOC(CCCCN=C(N)N)C1)C(=O)[O-] (stereo partly specified)
[in] Parameters: sort_field (pIC50), sort_dir (desc). The labels, placed in the requested order, form the answer.
[out] E, C, A, B, D
(E: 8.15, C: 7.92, A: 7.64, B: 7.14, D: 6.52)

###

system name: Integrin alpha-IIb/beta-3 (Homo sapiens, UniProt P05106+P08514)
method: Antagonistic activity against fibrinogen receptor
outcome measure: IC50 (µM)

Below: 3 compounds and their reported IC50.
INSERT INTO results (compound, meas_value) VALUES
  ('N=C(N)NCCCCC1=NOC(C(=O)NC[C@H](NC(=O)OCc2ccccc2)C(=O)O)C1 (stereo not given in full)', 55),
  ('Cc1cc(C)c(S(=O)(=O)N[C@@H](CNC(=O)C2=NOC(CCCCN=C(N)N)C2)C(=O)O)c(C)c1 (stereo not given in full)', 0.34),
  ('N=C(N)NCCCCC1=NOC(CC(=O)NC[C@H](NC(=O)OCc2ccccc2)C(=O)O)C1 (stereo not given in full)', 0.8);

a: CC(C)(C)c1ccc(S(=O)(=O)N[C@@H](CNC(=O)C2=NOC(CCCCNC(=N)N)C2)C(=O)O)cc1 (stereo not given in full)
b: N=C(N)NCCCCC1CC(C(=O)NC[C@H](NS(=O)(=O)c2ccc(-c3ccccn3)s2)C(=O)O)=NO1 (stereo not given in full)
c: N=C(N)NCCCC1=NOC(CC(=O)NC[C@H](NC(=O)OCc2ccccc2)C(=O)O)C1 (stereo not given in full)
d: CN(C)c1cccc2c1ccc[n+]2S(=O)(=O)N[C@@H](CNC(=O)C1=NOC(CCCCN=C(N)N)C1)C(=O)[O-] (stereo not given in full)
e: N=C(N)NCCCCC1CC(C(=O)NC[C@H](NS(=O)(=O)c2cccc3ccccc23)C(=O)O)=NO1 (stereo not given in full)
[in] Hello, I need these entries ordered by IC50, highest reading first. Thanks! Reply: labels, ordered per the request.
[out] a, c, d, e, b

###

system name: Integrin alpha-IIb/beta-3 (Homo sapiens, UniProt P05106+P08514)
method: Antagonistic activity against fibrinogen receptor
outcome measure: IC50 (µM)

Some molecules with known IC50 results, for comparison:
INSERT INTO measurements (molecule, system_name, outcome_measure, units_symbol, meas_value) VALUES
  ('N=C(N)NCCCCC1CC(C(=O)NC[C@H](NS(=O)(=O)c2ccc(Cl)cc2)C(=O)O)=NO1 (stereo not given in full)', 'Integrin alpha-IIb/beta-3 (Homo sapiens, UniProt P05106+P08514)', 'IC50', 'µM', 2.6),
  ('Cc1noc(C)c1S(=O)(=O)N[C@@H](CNC(=O)C1=NOC(CCCCN=C(N)N)C1)C(=O)O (stereo not given in full)', 'Integrin alpha-IIb/beta-3 (Homo sapiens, UniProt P05106+P08514)', 'IC50', 'µM', 0.85),
  ('N=C(N)NCCCCC1CC(C(=O)NC[C@H](NS(=O)(=O)c2cccs2)C(=O)O)=NO1 (stereo not given in full)', 'Integrin alpha-IIb/beta-3 (Homo sapiens, UniProt P05106+P08514)', 'IC50', 'µM', 0.36);

I: Cn1ccc(S(=O)(=O)N[C@@H](CNC(=O)C2=NOC(CCCCN=C(N)N)C2)C(=O)O)n1 (stereo not given in full)
II: N=C(N)NCCCCCC1=NOC(C(=O)NC[C@H](NC(=O)OCc2ccccc2)C(=O)O)C1 (stereo not given in full)
[in] For I and II , which recorded IC50 is lower? Select an item and report its label.
[out] I
(I: 3.6 µM, II: 13 µM)

###

system name: Integrin alpha-V/beta-3 (Homo sapiens, UniProt P05106+P06756)
method: Antagonistic activity against vitronectin receptor
outcome measure: IC50 (nM)

INSERT INTO results (compound, units_symbol, meas_value) VALUES
  ('N=C(N)NCCCCC1=NOC(CC(=O)NC[C@H](NC(=O)OCc2ccccc2)C(=O)O)C1 (stereo not given in full)', 'nM', 180),
  ('N=C(N)NCCCCC1CC(C(=O)NC[C@H](NS(=O)(=O)c2ccc(-c3ccccn3)s2)C(=O)O)=NO1 (stereo not given in full)', 'nM', 8),
  ('N=C(N)NCCC1CC(CCC(=O)NC[C@H](NC(=O)OCc2ccccc2)C(=O)O)=NO1 (stereo not given in full)', 'nM', 87),
  ('N=C(N)NCCCC1CC(C(=O)NC[C@H](NC(=O)OCc2ccccc2)C(=O)O)=NO1 (stereo not given in full)', 'nM', 140),
  ('Cc1noc(C)c1S(=O)(=O)N[C@@H](CNC(=O)C1=NOC(CCCCN=C(N)N)C1)C(=O)O (stereo not given in full)', 'nM', 14),
  ('Cc1cn(C)[n+](Cl)c1S(=O)(=O)N[C@@H](CNC(=O)C1=NOC(CCCCN=C(N)N)C1)C(=O)[O-] (stereo not given in full)', 'nM', 2);

1: N=C(N)NCCC1=NOC(CC(=O)NC[C@H](NC(=O)OCc2ccccc2)C(=O)O)C1 (stereo not given in full)
2: N=C(N)NCCC1=NOC(CCC(=O)NC[C@H](NC(=O)OCc2ccccc2)C(=O)O)C1 (stereo not given in full)
[in] Hi, I'm comparing 1 with 2 and wondering which one has the bigger number for IC50. Any idea? Label of pick, please.
[out] 1
(1: 900 nM, 2: 480 nM)

A: N=C(N)NCCC1CC(C(=O)NC[C@H](NC(=O)OCc2ccccc2)C(=O)O)=NO1 (stereo not given in full)
B: N=C(N)NCCCCC1CC(C(=O)NC[C@H](NS(=O)(=O)c2ccc([N+](=O)[O-])cc2)C(=O)O)=NO1 (stereo not given in full)
C: N=C(N)NCCCCCC1=NOC(C(=O)NC[C@H](NC(=O)OCc2ccccc2)C(=O)O)C1 (stereo not given in full)
D: N=C(N)NCCCCC1CC(C(=O)NC[C@H](NS(=O)(=O)c2cc(Cl)sc2Cl)C(=O)O)=NO1 (stereo not given in full)
[in] Sort entries by IC50 from minimum to maximum value. List labels; respect the requested ordering.
[out] D, A, B, C
(D: 24 nM, A: 66 nM, B: 140 nM, C: 710 nM)

1: N=C(N)NCCC1=NOC(C(=O)NC[C@H](NC(=O)OCc2ccccc2)C(=O)O)C1 (stereo not given in full)
2: N=C(N)NCCCC1=NOC(C(=O)NC[C@H](NC(=O)OCc2ccccc2)C(=O)O)C1 (stereo not given in full)
3: N=C(N)NCCCCCC1=NOC(CC(=O)NC[C@H](NC(=O)OCc2ccccc2)C(=O)O)C1 (stereo not given in full)
4: COc1ccc(S(=O)(=O)N[C@@H](CNC(=O)C2=NOC(CCCCN=C(N)N)C2)C(=O)O)cc1 (stereo not given in full)
5: N=C(N)NCCCCC1CC(C(=O)NC[C@H](NC(=O)OCc2ccccc2)C(=O)O)=NO1 (stereo not given in full)
[in] Hey, quick one: sort these by IC50, largest value first please. State the ranking by listing the labels in the requested order.
[out] 1, 3, 2, 5, 4
